- study_target: EZH2 (Homo sapiens, UniProt Q15910)
- Sequence (Q15910 whole entry): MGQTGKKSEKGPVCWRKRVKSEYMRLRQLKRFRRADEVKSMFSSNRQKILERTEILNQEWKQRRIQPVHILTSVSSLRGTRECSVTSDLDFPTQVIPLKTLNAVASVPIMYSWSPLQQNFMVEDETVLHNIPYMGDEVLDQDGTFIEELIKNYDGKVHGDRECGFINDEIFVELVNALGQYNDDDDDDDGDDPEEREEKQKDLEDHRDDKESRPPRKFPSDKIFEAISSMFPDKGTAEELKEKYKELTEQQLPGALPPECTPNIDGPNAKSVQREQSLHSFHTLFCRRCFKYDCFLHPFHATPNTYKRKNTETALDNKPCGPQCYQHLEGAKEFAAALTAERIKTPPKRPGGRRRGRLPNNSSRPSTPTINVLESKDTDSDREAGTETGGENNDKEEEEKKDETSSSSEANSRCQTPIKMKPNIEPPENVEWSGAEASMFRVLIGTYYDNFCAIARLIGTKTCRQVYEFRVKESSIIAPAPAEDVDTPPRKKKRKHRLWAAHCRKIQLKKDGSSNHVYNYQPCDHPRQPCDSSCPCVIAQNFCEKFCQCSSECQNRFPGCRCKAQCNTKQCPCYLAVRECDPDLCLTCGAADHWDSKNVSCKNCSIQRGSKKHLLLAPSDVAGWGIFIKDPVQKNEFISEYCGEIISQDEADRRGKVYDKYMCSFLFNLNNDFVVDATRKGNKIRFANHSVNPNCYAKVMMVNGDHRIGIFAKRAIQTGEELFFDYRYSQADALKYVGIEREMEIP
- Sequence (O75530 whole entry partner): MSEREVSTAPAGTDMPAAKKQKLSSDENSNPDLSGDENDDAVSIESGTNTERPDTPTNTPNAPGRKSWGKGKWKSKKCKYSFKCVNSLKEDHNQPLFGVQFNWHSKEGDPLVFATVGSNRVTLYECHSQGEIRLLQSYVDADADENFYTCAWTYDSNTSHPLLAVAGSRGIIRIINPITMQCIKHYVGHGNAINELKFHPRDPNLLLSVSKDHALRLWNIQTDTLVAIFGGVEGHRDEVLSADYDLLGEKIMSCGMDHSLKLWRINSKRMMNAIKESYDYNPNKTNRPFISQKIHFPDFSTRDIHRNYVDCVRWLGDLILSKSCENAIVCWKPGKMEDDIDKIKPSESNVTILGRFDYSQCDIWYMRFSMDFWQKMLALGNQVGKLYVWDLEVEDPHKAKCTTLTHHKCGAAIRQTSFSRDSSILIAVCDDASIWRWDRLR
- Sequence (Q15022 whole entry partner): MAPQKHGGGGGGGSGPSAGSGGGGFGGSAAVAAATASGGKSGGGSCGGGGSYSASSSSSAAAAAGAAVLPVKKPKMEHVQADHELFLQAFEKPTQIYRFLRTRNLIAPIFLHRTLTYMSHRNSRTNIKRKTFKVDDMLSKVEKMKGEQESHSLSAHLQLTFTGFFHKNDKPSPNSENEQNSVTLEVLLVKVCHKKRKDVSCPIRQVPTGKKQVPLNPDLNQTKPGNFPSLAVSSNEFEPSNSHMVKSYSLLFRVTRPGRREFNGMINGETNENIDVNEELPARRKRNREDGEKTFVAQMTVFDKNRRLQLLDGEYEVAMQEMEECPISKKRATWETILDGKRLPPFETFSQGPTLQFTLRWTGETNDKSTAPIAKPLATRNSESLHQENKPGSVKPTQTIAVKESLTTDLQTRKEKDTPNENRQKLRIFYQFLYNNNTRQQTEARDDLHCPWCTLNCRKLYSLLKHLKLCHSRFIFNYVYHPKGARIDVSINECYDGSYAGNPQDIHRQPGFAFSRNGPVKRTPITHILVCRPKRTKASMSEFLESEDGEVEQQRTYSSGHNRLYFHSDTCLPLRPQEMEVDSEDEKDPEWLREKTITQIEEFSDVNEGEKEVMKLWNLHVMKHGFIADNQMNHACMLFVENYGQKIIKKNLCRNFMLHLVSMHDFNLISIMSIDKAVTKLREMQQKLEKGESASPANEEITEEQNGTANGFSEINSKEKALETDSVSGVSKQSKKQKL
- Sequence (Q09028 whole entry partner): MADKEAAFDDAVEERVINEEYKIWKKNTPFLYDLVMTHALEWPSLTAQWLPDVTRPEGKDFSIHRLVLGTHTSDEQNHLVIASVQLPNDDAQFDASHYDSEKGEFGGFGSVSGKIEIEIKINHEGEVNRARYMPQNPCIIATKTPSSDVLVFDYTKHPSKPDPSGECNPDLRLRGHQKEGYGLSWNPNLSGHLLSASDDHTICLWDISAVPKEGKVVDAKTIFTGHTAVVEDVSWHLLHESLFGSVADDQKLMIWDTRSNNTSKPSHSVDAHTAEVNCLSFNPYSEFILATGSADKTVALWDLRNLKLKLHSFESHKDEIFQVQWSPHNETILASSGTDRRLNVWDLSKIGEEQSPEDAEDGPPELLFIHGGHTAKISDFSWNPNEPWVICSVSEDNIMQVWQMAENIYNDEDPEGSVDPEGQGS
- Sequence (Q6ZN18 whole entry partner): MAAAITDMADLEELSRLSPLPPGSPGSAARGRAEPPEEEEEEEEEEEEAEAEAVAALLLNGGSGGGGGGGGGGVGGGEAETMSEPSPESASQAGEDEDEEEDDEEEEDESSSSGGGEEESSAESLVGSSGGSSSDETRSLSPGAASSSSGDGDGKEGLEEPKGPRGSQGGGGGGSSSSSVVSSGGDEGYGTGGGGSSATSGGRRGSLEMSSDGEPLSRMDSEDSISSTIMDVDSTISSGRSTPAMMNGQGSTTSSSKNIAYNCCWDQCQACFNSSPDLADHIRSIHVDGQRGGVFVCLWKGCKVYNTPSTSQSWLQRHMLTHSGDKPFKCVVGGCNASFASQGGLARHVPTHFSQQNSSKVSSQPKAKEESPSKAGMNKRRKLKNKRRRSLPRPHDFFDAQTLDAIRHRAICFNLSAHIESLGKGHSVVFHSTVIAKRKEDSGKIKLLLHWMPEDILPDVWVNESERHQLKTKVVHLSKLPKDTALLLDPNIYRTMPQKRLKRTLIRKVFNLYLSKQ
- test_name: Inhibitory activity against EZH2 methyltransferase (radiometric scintillation proximity assay);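 note: Read-out is substrate peptide methylation, captured on streptavidin-coated SPA beads and counted by scintillation, with the reaction run in Tris-HCl buffer at pH 8.0 containing 1% DMSO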
- measurement_setup: Enzyme inhibitory activity (IC50, nM) EZH2, 2.3 nmol/L enzyme, 90 minutes, room temperature
result_type: IC50

# molecule COc1cc(C)[nH]c(=O)c1CN1CCc2c(C)c3c(c(C)c2C1=O)OC(C)([C@H]1CC[C@H](N(C)C)CC1)O3 (stereo partly drawn) [Compound 42] ; its IC50 = 3.4 to 6 nM

In plain terms, Cc1cc(C)c(CN2CCc3c(Cl)c4c(c(C)c3C2=O)OC(C)([C@H]2CC[C@H](N(C)C)CC2)O4)c(=O)[nH]1 (single isomer, unassigned) [Compound 10] has a documented IC50 of 0.8 to 1.4 nM

Quick note, IC50 for Cc1cc(C)c(CN2CCc3c(C)c4c(c(C)c3C2=O)OC(C)([C@H]2CC[C@H](N(C)C)CC2)O4)c(=O)[nH]1 (stereo partly drawn) [Compound 39] landed at 1.2 to 6.2 nM

###

- study_target: EZH1 (Homo sapiens)
- Construct: purchased Reaction Biology Corp. (contract assay)
- Sequence (Q92800 whole entry, one chain of several): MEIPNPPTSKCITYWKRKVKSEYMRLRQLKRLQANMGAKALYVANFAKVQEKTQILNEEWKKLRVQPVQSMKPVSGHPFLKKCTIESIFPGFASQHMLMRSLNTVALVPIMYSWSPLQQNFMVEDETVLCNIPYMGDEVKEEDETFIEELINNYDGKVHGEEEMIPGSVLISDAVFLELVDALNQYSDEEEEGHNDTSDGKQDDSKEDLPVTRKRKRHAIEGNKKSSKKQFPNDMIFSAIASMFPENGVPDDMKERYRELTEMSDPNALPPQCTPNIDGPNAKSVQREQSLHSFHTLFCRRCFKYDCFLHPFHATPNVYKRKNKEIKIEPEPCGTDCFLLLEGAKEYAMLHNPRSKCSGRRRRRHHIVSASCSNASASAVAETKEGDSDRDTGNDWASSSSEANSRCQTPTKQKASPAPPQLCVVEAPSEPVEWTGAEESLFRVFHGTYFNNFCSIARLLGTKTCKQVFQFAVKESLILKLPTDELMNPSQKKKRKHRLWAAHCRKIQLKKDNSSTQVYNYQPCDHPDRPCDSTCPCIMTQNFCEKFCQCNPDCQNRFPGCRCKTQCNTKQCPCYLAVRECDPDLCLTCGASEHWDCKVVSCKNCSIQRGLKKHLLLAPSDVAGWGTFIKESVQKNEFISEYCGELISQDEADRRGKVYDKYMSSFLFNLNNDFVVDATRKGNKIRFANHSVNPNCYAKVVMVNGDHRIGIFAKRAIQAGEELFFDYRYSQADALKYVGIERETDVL
- test_name: Inhibitory activity against EZH1 methyltransferase (radiometric scintillation proximity assay);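 note: Read-out is methylation of a substrate peptide, captured on streptavidin-coated SPA beads and counted by scintillation, in Tris-HCl buffer at pH 8.0 with 1% DMSO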
- Type: biochemical
- measurement_setup: 2.3 nmol/L enzyme, 90 minutes, room temperature
result_type: IC50

Looking up Cc1cc(C)c(CN2CCc3c(Cl)c4c(c(C)c3C2=O)OC(C)([C@H]2CC[C@@H](N(C)C)CC2)O4)c(=O)[nH]1 (stereo partly drawn) , I found its IC50 recorded as 23 to 50 nM

GET /value?item= Cc1cc(C)c(CN2CCc3c(Cl)c4c(c(C)c3C2=O)OC(C)([C@H]2CC[C@H](N(C)C)CC2)O4)c(=O)[nH]1 (mixture of isomers) [Compound 9] &field=IC50 returns 16 to 43 nM

Record CCN(CC)[C@H]1CC[C@H](C2(C)Oc3c(C)c4c(c(Cl)c3O2)CCN(Cc2c(C)cc(C)[nH]c2=O)C4=O)CC1 (stereo partly drawn) . Reported IC50: 89 nM

Documented IC50 of COc1cc(C)[nH]c(=O)c1CN1CCc2c(Cl)c3c(c(C)c2C1=O)OC(C)([C@H]1CC[C@H](N(C)C)CC1)O3 (stereo partly drawn) : 23 to 35 nM

get_value(item= Cc1cc(C)c(CN2CCc3c(Cl)c4c(c(C)c3C2=O)OC(C)(C[C@H]2CC[C@H](N(C)C)CC2)O4)c(=O)[nH]1 (stereo partly drawn) , readout=IC50) returns 137 nM

The molecule C=Cc1c2c(c(C)c3c1OC(C)([C@H]1CC[C@H](N(C)C)CC1)O3)C(=O)N(Cc1c(C)cc(C)[nH]c1=O)CC2 (stereo partly drawn) showed IC50 equal to 32 to 55 nM

Measured IC50 of Cc1cc(C)c(CN2CCc3c(C#N)c4c(c(C)c3C2=O)OC(C)([C@H]2CC[C@H](N(C)C)CC2)O4)c(=O)[nH]1 (stereo partly drawn) : 65 nM

molecule COc1cc(C)[nH]c(=O)c1CN1CCc2c(C)c3c(c(C)c2C1=O)OC(C)([C@H]1CC[C@H](N(C)C)CC1)O3 (stereo partly drawn) , IC50 observed: 31 to 34 nM

// sample C#Cc1c2c(c(C)c3c1OC(C)([C@H]1CC[C@H](N(C)C)CC1)O3)C(=O)N(Cc1c(C)cc(C)[nH]c1=O)CC2 (stereo partly drawn) , its IC50 was 27 to 139 nM

###

- test_name: Metabolic stability in human liver microsomes
- Assay type: in vitro ADME
- measurement_setup: 5 μM compound, 1 mg/mL human liver microsomes, 37° C., NADPH regenerating system
- Description: In order to confirm the metabolic stability of the synthetic compounds in the liver, 5 μM test compound and 1 mg/mL human, dog, rat or mouse liver microsomes were allowed to react with each other at 37° C. in the presence of the NADPH regenerating system for 1 hour. After 1 hour, the reaction was terminated and the supernatant obtained by centrifugation was analyzed by HPLC. […]
result_type: Residual amount (%) of test compound after 1 hour of reaction, Human
A number alone suffices; assume %.

Record Cc1cc(C)c(CN2CCc3c(Br)c4c(c(C)c3C2=O)OC(C)([C@H]2CC[C@H](N(C)C)CC2)O4)c(=O)[nH]1 (single isomer, unassigned) [Compound 50] , field Residual amount (%) of test compound after 1 hour of reaction, Human: 35

Record COc1cc(C)[nH]c(=O)c1CN1CCc2c(C)c3c(c(C)c2C1=O)OC(C)([C@H]1CC[C@H](N(C)C)CC1)O3 (stereo partly drawn) , field Residual amount (%) of test compound after 1 hour of reaction, Human: 74

The recorded Residual amount (%) of test compound after 1 hour of reaction, Human for Cc1cc(C)c(CN2CCc3c(C)c4c(c(C)c3C2=O)OC(C)([C@H]2CC[C@H](N(C)C)CC2)O4)c(=O)[nH]1 (stereo partly drawn) [Compound 39] is 62

###

- System: KARPAS-422 (EZH2 Y641N mutation)
- test_name: Cell growth inhibition test, KARPAS-422
- Type: cell-based
- measurement_setup: KARPAS-422, culture time 7 days; read-out: Cell growth inhibitory activity (GI50, nM) KARPAS-422 (EZH2 Y641N mutation)
result_type: GI50

Recorded result, Cc1cc(C)c(CN2CCc3c(Cl)c4c(c(C)c3C2=O)OC(C)([C@H]2CC[C@H](N(C)C)CC2)O4)c(=O)[nH]1 (single isomer, unassigned) [Compound 11] , GI50: ≥ 563 nM

Per the record, Cc1cc(C)c(CN2CCc3c(Cl)c4c(c(C)c3C2=O)OC(C)([C@H]2CC[C@H](N(C)C)CC2)O4)c(=O)[nH]1 (single isomer, unassigned) [Compound 10] has GI50 of 2.5 to 13 nM

Looking up Cc1cc(C)c(CN2CCc3c(Br)c4c(c(C)c3C2=O)OC(C)([C@H]2CC[C@H](N(C)C)CC2)O4)c(=O)[nH]1 (single isomer, unassigned) [Compound 49] , I see its GI50 listed as 1.2 to 9.7 nM

###

- study_target: EZH2 (Homo sapiens)
- test_name: Inhibitory activity against EZH2 methyltransferase (radiometric scintillation proximity assay)
- measurement_setup: Enzyme inhibitory activity (IC50, nM) EZH2, 2.3 nmol/L enzyme, 90 minutes, room temperature
result_type: IC50

Reported IC50 ( Cc1cc(C)c(CN2CCc3c(Cl)c4c(c(C)c3C2=O)OC(C)([C@H]2CC[C@H](N(C)C)CC2)O4)c(=O)[nH]1 (single isomer, unassigned) [Compound 11] ) = 116 to 473 nM

# compound C=Cc1c2c(c(C)c3c1OC(C)([C@H]1CC[C@H](N(C)C)CC1)O3)C(=O)N(Cc1c(C)cc(C)[nH]c1=O)CC2 (stereo partly drawn) [Compound 52] ; its IC50 = 3.4 to 3.7 nM

Form: compound = Cc1cc(C)c(CN2CCc3c(Cl)c4c(c(C)c3C2=O)OC(C)([C@H]2CC[C@H](N(C)C)CC2)O4)c(=O)[nH]1 (mixture of isomers) [Compound 9] ; IC50 = 1.5 to 5 nM

The reported measurements were obtained from patent US12344618B2.
